Assay: self-splicing fitness, log relative to wild type (ln ratio); higher = more splicing; Tetrahymena group I intron in knt gene, E. coli kanamycin selection, DiMSum; sequences stand for … in CUCUCU…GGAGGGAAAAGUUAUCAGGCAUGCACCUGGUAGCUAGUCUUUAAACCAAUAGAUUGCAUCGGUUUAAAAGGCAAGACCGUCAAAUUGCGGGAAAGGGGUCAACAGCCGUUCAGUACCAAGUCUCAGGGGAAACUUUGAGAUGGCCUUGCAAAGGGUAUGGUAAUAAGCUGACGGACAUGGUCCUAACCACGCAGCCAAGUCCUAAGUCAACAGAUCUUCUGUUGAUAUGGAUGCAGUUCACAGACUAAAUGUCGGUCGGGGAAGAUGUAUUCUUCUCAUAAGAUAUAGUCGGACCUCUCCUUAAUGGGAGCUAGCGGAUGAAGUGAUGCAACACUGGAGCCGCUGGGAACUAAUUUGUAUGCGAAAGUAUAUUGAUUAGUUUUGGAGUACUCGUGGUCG;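 further: selection with 25 µg/mL kanamycin versus none on LB agar overnight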
Conditions: 37 °C
We begin with a simple list: items and their reported self-splicing fitness (ln).
Output spec: single numeric token, no unit.

# seq-string, test-readout, measured-value
rows = [
    ("CCUGAGCAAUAUUACGCUUG", "self-splicing fitness (ln)", -1.23),
    ("AAACAGCAAUAUUACGUCUC", "self-splicing fitness (ln)", -2.31),
    ("UCCUAGCAAUAUUACGGUAU", "self-splicing fitness (ln)", -1.76),
    ("UAUCAGCAAUAUUACGGCAC", "self-splicing fitness (ln)", -0.753),
    ("CAGAAGCAAUAUUACGGGAA", "self-splicing fitness (ln)", -1.37),
    ("CAAUAGCAAUAUUACGCUAC", "self-splicing fitness (ln)", -2.08),
    ("GCCGAGCAAUAUUACGACCC", "self-splicing fitness (ln)", -0.208),
    ("AAUAAGCAAUAUUACGCAAU", "self-splicing fitness (ln)", -1.22),
    ("GGAUAGCAAUAUUACGCGUG", "self-splicing fitness (ln)", -0.118),
    ("AUGAAGCAAUAUUACGGGAA", "self-splicing fitness (ln)", -0.953),
]

Query: For `UACCAGCAAUAUUACGCCGG` , what is its reported self-splicing fitness (ln)?
Result: -3.14

Query: For `UGUUAGCAAUAUUACGGGAC` , what is its reported self-splicing fitness (ln)?
Result: -2.99

Query: For `AAACAGCAAUAUUACGUGUA` , what is its reported self-splicing fitness (ln)?
Result: -1.41

Query: For `UGUGAGCAAUAUUACGUCCG` , what is its reported self-splicing fitness (ln)?
Result: -0.0626

* * *

Assay: self-splicing fitness, log relative to wild type (ln ratio); higher = more splicing; Tetrahymena group I intron in knt gene, E. coli kanamycin selection, DiMSum; sequences stand for … in CUCUCU…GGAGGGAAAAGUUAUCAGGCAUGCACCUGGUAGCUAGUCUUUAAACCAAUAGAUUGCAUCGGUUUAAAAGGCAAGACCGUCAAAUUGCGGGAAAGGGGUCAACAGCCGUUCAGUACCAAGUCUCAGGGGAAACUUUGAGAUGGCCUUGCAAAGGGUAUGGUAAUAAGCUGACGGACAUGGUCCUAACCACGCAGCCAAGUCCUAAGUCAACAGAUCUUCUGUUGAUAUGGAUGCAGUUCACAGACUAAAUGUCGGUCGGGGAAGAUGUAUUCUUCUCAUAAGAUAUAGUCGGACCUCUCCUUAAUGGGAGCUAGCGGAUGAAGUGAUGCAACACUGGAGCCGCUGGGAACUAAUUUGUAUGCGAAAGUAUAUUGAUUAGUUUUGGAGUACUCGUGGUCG
Settings: 37 °C
We begin with a simple list: items and their reported self-splicing fitness (ln).
Output spec: single numeric token, no unit.

# seq-string, test-readout, measured-value
rows = [
    ("GCUGAGCAAUAUUACGGCAU", "self-splicing fitness (ln)", -1.82),
]

Query: For `AGCUAGCAAUAUUACGUAAU` , what is its reported self-splicing fitness (ln)?
Result: -0.924

Query: For `GCCCAGCAAUAUUACGCACA` , what is its reported self-splicing fitness (ln)?
Result: -0.518

Query: For `ACGGAGCAAUAUUACGAGAG` , what is its reported self-splicing fitness (ln)?
Result: -2.22

Query: For `UCAAAGCAAUAUUACGAAUC` , what is its reported self-splicing fitness (ln)?
Result: -2.76

Query: For `CAGAAGCAAUAUUACGUGUC` , what is its reported self-splicing fitness (ln)?
Result: -4

* * *

Assay: self-splicing fitness, log relative to wild type (ln ratio); higher = more splicing; Tetrahymena group I intron in knt gene, E. coli kanamycin selection, DiMSum; sequences stand for … in CUCUCU…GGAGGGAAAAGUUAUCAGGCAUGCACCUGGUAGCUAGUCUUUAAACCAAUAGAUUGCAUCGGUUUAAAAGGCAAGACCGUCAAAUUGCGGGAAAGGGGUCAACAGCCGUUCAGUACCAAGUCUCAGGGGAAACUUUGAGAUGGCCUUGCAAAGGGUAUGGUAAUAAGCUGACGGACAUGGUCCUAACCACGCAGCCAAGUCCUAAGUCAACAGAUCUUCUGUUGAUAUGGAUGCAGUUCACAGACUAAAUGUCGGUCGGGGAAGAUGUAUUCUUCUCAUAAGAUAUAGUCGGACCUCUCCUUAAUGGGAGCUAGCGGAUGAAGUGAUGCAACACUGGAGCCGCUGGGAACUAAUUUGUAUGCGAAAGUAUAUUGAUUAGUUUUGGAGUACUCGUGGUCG
Details: 37 °C
Outcome label depends on self-splicing fitness (ln) relative to -1: at/above gives 1 (yes), below gives 0 (no).

# seq-string, answer-label
records = [
    ("GAUCAGCAAUAUUACGUUCU", "0 (no)"),
    ("AGCCAGCAAUAUUACGUCCU", "1 (yes)"),
    ("UGGAAGCAAUAUUACGUGCU", "0 (no)"),
    ("UUUUAGCAAUAUUACGGACA", "1 (yes)"),
    ("UAUUAGCAAUAUUACGGCCA", "1 (yes)"),
    ("CGACAGCAAUAUUACGUAAG", "1 (yes)"),
]

Query: Test whether the sequence `UUGUAGCAAUAUUACGGGUU` records self-splicing fitness (ln) of -1 or higher.
Result: 0 (no)

Query: Test whether the sequence `UCGAAGCAAUAUUACGUCGG` records self-splicing fitness (ln) of -1 or higher.
Result: 0 (no)

Query: Test whether the sequence `UUGUAGCAAUAUUACGCACG` records self-splicing fitness (ln) of -1 or higher.
Result: 1 (yes)

Query: Test whether the sequence `AUUAAGCAAUAUUACGACUU` records self-splicing fitness (ln) of -1 or higher.
Result: 1 (yes)

* * *

Assay: self-splicing fitness, log relative to wild type (ln ratio); higher = more splicing; Tetrahymena group I intron in knt gene, E. coli kanamycin selection, DiMSum; sequences stand for … in CUCUCU…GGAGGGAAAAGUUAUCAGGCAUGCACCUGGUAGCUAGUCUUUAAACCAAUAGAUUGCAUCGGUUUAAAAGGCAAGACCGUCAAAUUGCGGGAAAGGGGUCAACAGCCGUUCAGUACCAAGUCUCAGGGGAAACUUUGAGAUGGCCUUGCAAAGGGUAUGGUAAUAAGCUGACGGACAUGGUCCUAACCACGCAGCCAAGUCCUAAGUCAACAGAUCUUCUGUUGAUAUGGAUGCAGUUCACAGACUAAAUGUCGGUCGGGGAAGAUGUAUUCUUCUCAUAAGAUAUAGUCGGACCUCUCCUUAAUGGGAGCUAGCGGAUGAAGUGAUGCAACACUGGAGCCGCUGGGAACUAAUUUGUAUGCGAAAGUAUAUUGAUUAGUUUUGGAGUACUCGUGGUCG
Details: 37 °C
test-readout: self-splicing fitness (ln)
Output spec: single numeric token, no unit.

Query: For `ACCUAGCAAUAUUACGAAAA` , what is its reported self-splicing fitness (ln)?
Result: -1.7

Query: For `AGGCAGCAAUAUUACGAGGA` , what is its reported self-splicing fitness (ln)?
Result: -2.55

* * *

Assay: self-splicing fitness, log relative to wild type (ln ratio); higher = more splicing; Tetrahymena group I intron in knt gene, E. coli kanamycin selection, DiMSum; sequences stand for … in CUCUCU…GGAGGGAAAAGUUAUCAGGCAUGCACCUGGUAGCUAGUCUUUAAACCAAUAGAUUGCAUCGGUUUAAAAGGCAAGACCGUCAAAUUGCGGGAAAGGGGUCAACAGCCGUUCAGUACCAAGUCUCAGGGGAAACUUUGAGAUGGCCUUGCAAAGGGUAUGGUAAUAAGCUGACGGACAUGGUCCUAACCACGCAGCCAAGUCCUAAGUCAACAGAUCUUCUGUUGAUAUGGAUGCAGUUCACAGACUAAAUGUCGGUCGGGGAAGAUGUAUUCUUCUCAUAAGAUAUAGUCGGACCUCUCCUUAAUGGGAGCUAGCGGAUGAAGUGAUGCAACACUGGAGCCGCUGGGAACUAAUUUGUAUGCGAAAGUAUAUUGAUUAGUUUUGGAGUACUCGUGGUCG
Conditions: 37 °C
We begin with a simple list: items and their reported self-splicing fitness (ln).
Output spec: single numeric token, no unit.

# seq-string, self-splicing fitness (ln)
records = [
    ("GAGGAGCAAUAUUACGUCCA", -0.83),
]

Query: For `ACUGAGCAAUAUUACGAUGU` , what is its reported self-splicing fitness (ln)?
Result: -2.67

Query: For `ACCAAGCAAUAUUACGUGCU` , what is its reported self-splicing fitness (ln)?
Result: -0.864

Query: For `UCCGAGCAAUAUUACGAACU` , what is its reported self-splicing fitness (ln)?
Result: -2.3

Query: For `CCAAAGCAAUAUUACGAUUA` , what is its reported self-splicing fitness (ln)?
Result: -3.27

Query: For `ACAGAGCAAUAUUACGCAUU` , what is its reported self-splicing fitness (ln)?
Result: -2.99

Query: For `AUGAAGCAAUAUUACGAACA` , what is its reported self-splicing fitness (ln)?
Result: 0.795

Query: For `UGGUAGCAAUAUUACGGGCU` , what is its reported self-splicing fitness (ln)?
Result: -0.926

Query: For `CGCGAGCAAUAUUACGCAUC` , what is its reported self-splicing fitness (ln)?
Result: -0.312

Query: For `UCACAGCAAUAUUACGGCGU` , what is its reported self-splicing fitness (ln)?
Result: -2.93
